Target: Amine oxidase [flavin-containing] B (Homo sapiens)
Sequence (P27338 whole entry): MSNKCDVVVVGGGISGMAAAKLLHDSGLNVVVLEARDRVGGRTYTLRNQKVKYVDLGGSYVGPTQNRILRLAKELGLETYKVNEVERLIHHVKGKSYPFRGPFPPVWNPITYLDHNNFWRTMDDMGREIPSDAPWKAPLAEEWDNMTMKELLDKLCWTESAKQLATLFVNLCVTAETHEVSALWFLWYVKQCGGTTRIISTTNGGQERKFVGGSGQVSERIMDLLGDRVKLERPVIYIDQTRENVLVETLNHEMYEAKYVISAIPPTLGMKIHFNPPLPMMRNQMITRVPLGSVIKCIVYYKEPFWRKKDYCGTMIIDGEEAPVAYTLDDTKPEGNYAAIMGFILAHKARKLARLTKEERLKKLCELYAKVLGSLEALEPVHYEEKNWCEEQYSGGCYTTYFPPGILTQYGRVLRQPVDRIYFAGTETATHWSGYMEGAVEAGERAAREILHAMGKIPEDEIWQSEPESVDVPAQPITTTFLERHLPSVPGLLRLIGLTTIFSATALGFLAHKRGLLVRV
Assay: Inhibition of recombinant human MAO-B using kynuramine as substrate assessed as 4-hydroxyquinoline production after 30 mins by fluorescence spectrophotometry analysis
# key: entry, value: IC50
# unit: nM | format: bare number

Worked cases, answers included:
INSERT INTO assay_data (substance_smiles, units_symbol, assay_result) VALUES
  ('O=C1CCCc2cc(OCc3cccc(F)c3)ccc21', 'nM', 17),
  ('O=C1CCCc2cc(OCc3cccc(I)c3)ccc21', 'nM', 4.5),
  ('O=C1CCCc2cc(O)ccc21', 'nM', 66400);

**Q:** Give IC50 (Amine oxidase [flavin-containing] B (Homo sapiens)) of the following compound: N#Cc1ccc(COc2ccc3c(c2)CCCC3=O)cc1
**A:** 11

**Q:** Likewise for O=C1CCCc2cc(OCCc3ccccc3)ccc21 ?
**A:** 33
